Task for the reader: assign each of the following molecules its reported IC50.
Target: Heat shock protein HSP 90-alpha (Homo sapiens)
Experiment: Hsp90 blockade concentration-response – dose response (AID 712)
Settings: Hsp90 inhibition assay
Activity calls are given as the source filed them. The rule behind the calls is not given here.

O=C1C(c2cnc3c(n2)CCC=C3)=C(O)c2ccccc21 > 50 µM (inactive)
CN(C)C=Nc1c(Br)cc(Br)c2nonc12 > 50 µM (inactive)

Batch lookup, IC50 per entry.
1. C=CCNC(=O)CN(c1cccc(Br)c1)S(C)(=O)=O
2. O=C1c2ccccc2C(=O)N1Cc1ccc2c(c1)OCO2
3. O=S(=O)(Nc1cc(OCc2ccccc2)cc2cccnc12)c1ccc(F)cc1
4. CCCCn1c(NC(=O)c2ccccc2)c(C#N)c2nc3ccccc3nc21
5. CCc1cc(C(=O)Cn2cnc3ccccc32)c(O)cc1O
6. CCOc1ccc2ccccc2c1-c1cc(NS(=O)(=O)c2cc(Cl)ccc2Cl)ccc1N
7. COc1cccc2c1C(=O)c1c(O)c3c(c(O)c1C2=O)C[C@@](O)(C(C)=O)C[C@@H]3O[C@H]1C[C@H](N)[C@H](O)[C@H](C)O1

1. > 50 µM (inactive)
2. > 50 µM (inactive)
3. > 50 µM (inactive)
4. 27.1 µM
5. > 50 µM (inactive)
6. > 50 µM (inactive)
7. 0.174 µM

Output measured IC50 for this item: `COc1cc(NS(=O)(=O)c2ccc(F)c(C#N)c2)c2ncccc2c1`
> 50 µM (inactive)

---

Molecular target: UniProt:P07900
Test: Hsp90 blockade concentration-response – dose response (AID 712)
Conditions: Hsp90 inhibition assay
Calls of active or inactive are those of the source. How the calls were made is not given here.
Outcome (select one): active, inactive

MOLECULE	SUBJECT OF TEST	LABEL VALUE
Nc1cc2c(c(O)c1O)C(=O)c1ccccc1C2=O	UniProt:P07900	active
CCOC(=O)c1cnc(SC2CCc3ccccc3C2=O)nc1N (centres undefined)	UniProt:P07900	active
O=C1C(c2nc3ccccc3s2)=C(O)c2ccccc21	UniProt:P07900	inactive

Would you mind telling me which call this test gave `O=C(Cn1cnc2ccccc2c1=O)NCCC(=O)Nc1ccc2c(c1)OCCO2` ?
inactive

Would you mind telling me which call this test gave `COc1ccc(S(=O)(=O)Nc2ccc(O)c(-c3ccccc3O)c2)cc1OC` ?
inactive

Would you mind telling me which call this test gave `O=S(=O)(Nc1cc(O)cc2cccnc12)c1ccc(F)cc1` ?
active

Would you mind telling me which call this test gave COc1cc(NCC(O)CN(CC(C)C)CC(C)C)c2nc(C)ccc2c1 (centres undefined) ?
inactive

Would you mind telling me which call this test gave `CCn1cc(C(=O)NCc2ccccn2)c(=O)c2cc(S(=O)(=O)N3CCCCC3)ccc21` ?
active

Would you mind telling me which call this test gave `CCc1ccc(CNc2ccc(N3CCN(C(C)=O)CC3)cc2)cc1` ?
inactive

Would you mind telling me which call this test gave `Nc1cc(=O)[nH]c(SCC(=O)c2ccc3c(c2)OCO3)n1` ?
inactive

Would you mind telling me which call this test gave `CC(=O)Oc1cc2c(C(=O)NCCCN3CCOCC3)c(C)oc2c2ccccc12` ?
active

Would you mind telling me which call this test gave `CC1(C)CC(=O)c2c(O)cc(O)cc2O1` ?
inactive

Would you mind telling me which call this test gave `COc1ccc(S(=O)(=O)N(C)CC(=O)N2CCC(C(N)=O)CC2)cc1Cl` ?
inactive

Would you mind telling me which call this test gave `CC(C)c1cc(Nc2cccc(O)c2)cc(C(C)C)c1O` ?
active

Would you mind telling me which call this test gave COc1ccc(N2CSC3=C(C#N)C(c4ccc(OC)c(OC)c4)CC(=O)N3C2)c(OC)c1 (centres undefined) ?
inactive

Would you mind telling me which call this test gave `CC(C)OC(=O)CSc1nc2ccccc2s1` ?
inactive

Would you mind telling me which call this test gave `O=S(=O)(Nc1ccc(O)c(-c2c(O)ccc3ccccc23)c1)c1ccccc1` ?
active

Would you mind telling me which call this test gave `COc1ccc2c(c1-c1cc(NS(=O)(=O)c3ccc(C)cc3)ccc1N)OCO2` ?
inactive

Would you mind telling me which call this test gave `Oc1ccc2[nH]ccc2c1` ?
inactive

Would you mind telling me which call this test gave `O=C(O)c1cc(O)c2c(c1)C(=O)c1cccc(O)c1C2=O` ?
active

Would you mind telling me which call this test gave Cc1occc1C(=O)NC(C)C(C)(C)C (centres undefined) ?
inactive

Would you mind telling me which call this test gave `Oc1ccc(-c2nc(-c3ccc(O)c(O)c3)cs2)cc1` ?
active

Would you mind telling me which call this test gave `COc1ccc2c(c1-c1cc(NS(=O)(=O)c3cccc(N)c3)ccc1N)OCO2` ?
inactive

Would you mind telling me which call this test gave `O=C(O)/C=C/c1ccc(O)c(O)c1` ?
inactive
